- assay_target: T1, cTnI quality control product recombinant protein (human, UniProt P19429 2-210, limits assumed)
- T1 construct: treated as the same molecule; also called cTnI antigen; cardiac troponin I
- T1 sequence (P19429 2-210 limits assumed): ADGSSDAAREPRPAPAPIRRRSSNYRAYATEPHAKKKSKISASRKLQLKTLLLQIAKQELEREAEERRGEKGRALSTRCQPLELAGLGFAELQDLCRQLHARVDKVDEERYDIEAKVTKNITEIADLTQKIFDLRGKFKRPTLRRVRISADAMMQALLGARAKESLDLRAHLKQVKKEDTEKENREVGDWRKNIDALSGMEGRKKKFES
- method_description: AMC sensor, antibody immobilised, cTnI in solution
measured_property: koff (s⁻¹)
Report the value in s⁻¹ with no unit label.

Requested read-out: koff. Entry: Mutation 1-20 (antibody, V domains shown, Built as m8) VH: EVQLQQSGPELVKPGASVKMSCKASGYTFTIYVIHWVKQKPGQGLEWIGYIYPYIDGTKYNEKFKGKATLTVDKSSSTAFMELSSLTSEDSAVYYCARSGYGGYGLAWLAYWGQGTLVTVSA VL: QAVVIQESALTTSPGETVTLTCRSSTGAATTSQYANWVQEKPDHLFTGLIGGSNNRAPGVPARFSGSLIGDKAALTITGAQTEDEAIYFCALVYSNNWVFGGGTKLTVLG
0.000542

Request the reported koff associated with Mutation 1-3 (antibody, V domains shown, Built as m8) VH: EVQLQQSGPELVKPGASVKMSCKASGYTFTLYVVHWVKQKPGQGLEWIGYIQPYIDGTKYNEKFKGKATLTVDKSSSTAFMELSSLTSEDSAVYYCARSGYGQYGLAWLAYWGQGTLVTVSA VL: QAVVIQESALTTSPGETVTLTCRSSTGAVTTSNYANWVQEKPDHLFTGLIGGSQNRAPGVPARFSGSLIGDKAALTITGAQTEDEAIYFCALVYSNQWVFGGGTKLTVLG
9.54e-06

For the binder Mutation 1-5 (antibody, V domains shown, Built as m8) VH: EVQLQQSGPELVKPGASVKMSCKASGYTFTLYVIHWVKQKPGQGLEWIGYIQPYIDGTKYNEKFKGKATLTVDKSSSTAFMELSSLTSEDSAVYYCARSGYGGYGLAWLAYWGQGTLVTVSA VL: QAVVIQESALTTSPGETVTLTCRSSTGAATTSNYANWVQEKPDHLFTGLIGGSQNRAPGVPARFSGSLIGDKAALTITGAQTEDEAIYFCALVYSNHWVFGGGTKLTVLG , what koff is on record?
4.4e-05

Quick one: koff of Mutation 1-25 (antibody, V domains shown, Built as m8) VH: EVQLQQSGPELVKPGASVKMSCKASGYTFTIYVLHWVKQKPGQGLEWIGYIYPYLDGTKYNEKFKGKATLTVDKSSSTAFMELSSLTSEDSAVYYCARSGYGNYGLAWLAYWGQGTLVTVSA VL: QAVVIQESALTTSPGETVTLTCRSSTGAATTSNYANWVQEKPDHLFTGLIGGSQNRAPGVPARFSGSLIGDKAALTITGAQTEDEAIYFCALVYSNHWVFGGGTKLTVLG ?
0.00053

Give its koff value. Item: Mutation 1-48 (antibody, V domains shown, Built as m8) VH: EVQLQQSGPELVKPGASVKMSCKASGYTFTIYVVHWVKQKPGQGLEWIGYIYPYIDGTKYNEKFKGKATLTVDKSSSTAFMELSSLTSEDSAVYYCARSGYGQYGLAWLAYWGQGTLVTVSA VL: QAVVIQESALTTSPGETVTLTCRSSTGAATTSNYANWVQEKPDHLFTGLIGGSNNRAPGVPARFSGSLIGDKAALTITGAQTEDEAIYFCALVYSNQWVFGGGTKLTVLG
4.32e-05
